- Test system: Streptococcus pneumoniae 1175
- Type: cell-based
- TEST CONDITIONS: S. pneumoniae 1175 (mefA); microtiter broth dilution
PROPERTY NAME: MIC S. pneumo. 1175

MOLECULE	ENDPOINT VALUE
CCC1OC(=O)C(C)C(=O)C(C)C(OC2OC(C)CC(N(C)C)C2O)C(C)(OC)CC(C)C(=O)C(C)C2N(CC3CCCN3C(=O)c3cnc4ccccc4c3)C(=O)OC12C (stereo not drawn) [12.05]	1 µg/mL
CCC1OC(=O)C(C)C(=O)C(C)C(OC2OC(C)CC(N(C)C)C2O)C(C)(OC)CC(C)C(=O)C(C)C2N(CC3CCN(Cc4nccc5ccccc45)C3)C(=O)OC12C (stereo not drawn) [11.10]	<0.06 µg/mL
CCC1OC(=O)C(C)C(=O)C(C)C(OC2OC(C)CC(N(C)C)C2O)C(C)(OC)CC(C)C(=O)C(C)C2N(CC3CCCN3C(=O)c3cc4cccnc4nc3C)C(=O)OC12C (stereo not drawn) [10.39]	0.5 µg/mL
